These measurements were taken from ChEMBL document CHEMBL1157539.

log10 XC50 values, listed per item
# System: Plasmodium falciparum
# EXPERIMENTAL_PROTOCOL: GSK_TCMDC: Inhibition of Plasmodium falciparum 3D7 in whole erythrocytes, using parasite LDH activity as an index of growth.
# Assay type: functional, organism-based
# MEASUREMENT_CONTEXT: Plasmodium falciparum, 3D7
QUANTITY_NAME: log10 XC50 (log10 of the value in nM)

COMPOUND	log10 XC50
c1ccc2c(CNCCCN3CCN(CCCNCc4c5ccccc5cc5ccccc45)CC3)c3ccccc3cc2c1	2.26
N#Cc1ccc2c(c1)CN(CCC1CCC(NC(=O)c3cc4cc(OC(F)(F)F)ccc4[nH]3)CC1)CC2 (stereo not drawn)	2.89
Cc1c(Cc2ccccc2Cl)cnc2nc(N)nc(N)c12	0.87
O=C(/C=C/c1ccc(Cl)c(Cl)c1)NCCCCCN1CCC(C(=O)Nc2ccc(Cl)c(Cl)c2)CC1	2.80
CC(=O)c1ccc(N2C(=O)C3C(Cc4ccc(OC(C)(C)C)cc4)NC4(C(=O)N(Cc5ccc(C(C)(C)C)cc5)c5ccccc54)C3C2=O)cc1 (stereo not drawn)	3.11
COc1ccc2c(Nc3ccc(N4CCN(C)CC4)cc3)cc(C)nc2c1	2.86
Cc1[nH]c2ccc(O)cc2c1C1CCN(CC2CCC(NC(=O)/C=C/c3ccc(Cl)c(Cl)c3)CC2)CC1 (stereo not drawn)	2.88
Cc1cc(OCc2ccccc2)c(OCc2ccccc2)cc1C(O)CN(C)Cc1ccccc1 (stereo not drawn)	2.91
COc1ccc(NC(=O)Nc2ccc(C)c(-c3ccc(C(=O)Nc4ccncc4)cc3)c2)cc1	2.76
CC(=O)c1ccc(NC(=O)NNC(=O)c2ccc(CCN3CCC(c4nc(COCC(F)(F)F)c(-c5ccc(F)cc5)o4)CC3)cc2)cc1	2.92
CCn1ccc2c(N3CCCS3(=O)=O)cc(C(=O)N[C@@H](Cc3ccccc3)[C@H](O)CNC3CCCCC3)cc21	2.14
Cc1cccc2nc(-c3ccc(-c4ccc(NC(=O)NCc5ccc(F)cc5)cc4)cc3)[nH]c12	3.12
CC(C)c1cc(C(=O)N[C@@H](Cc2ccccc2)[C@H](O)CNC2CCCCC2)cc(N2CCCC2=O)c1	2.08
CC(=O)Nc1ccc(Nc2c3ccccc3nc3ccccc23)cc1	3.01
COc1ccc(C(=O)C2CC2CN2CC=C(c3c[nH]c4ccccc34)CC2)cc1 (stereo not drawn)	2.73
CCc1ccc2nc(-c3ccc(F)cc3)nc(SCC(=O)Nc3sc(C)c(C)c3C#N)c2c1	2.81
Cc1cccc2nc(-c3cccc(-c4cccc(NC(=O)COc5ccccc5C(N)=O)c4)c3)[nH]c12	2.21
CCN(CC)/C(=N\C(=N)NCCCCCCNC(=N)/N=C(\Nc1ccc(Cl)cc1)N(CC)CC)Nc1ccc(Cl)cc1	2.97

* * *

# System: Plasmodium falciparum
# EXPERIMENTAL_PROTOCOL: GSK_TCMDC: Inhibition of Plasmodium falciparum 3D7 in whole erythrocytes, using parasite LDH activity as an index of growth.
# Assay type: functional, organism-based
# MEASUREMENT_CONTEXT: Plasmodium falciparum, 3D7
Classes based on XC50: lo: < 700 nM; mid: ≥ 700 nM and < 1000 nM; hi: ≥ 1000 nM

COMPOUND	CLASS_LABEL
COc1ccc2nccc([C@@H](O)CN3CCC(NCc4cnc5c(c4)NC(=O)CS5)CC3)c2c1	mid
CC(C)(C)c1ccc(CN2CCC(NC(=O)c3ccc(-c4cccc(C(F)(F)F)c4)s3)CC2)cc1	lo
COc1ccccc1C1CCN(C2CCC(NC(=O)c3cc(-c4ccc(Cl)cc4)cs3)CC2)CC1 (centres undefined)	lo
O=C(O)c1ccc2c(c1)N(C(=O)CNCc1ccc(F)cc1)CC(=O)N2CCCc1ccccc1	mid
COc1cccc(-c2cc(C(=O)Nc3cc(Oc4ccc(O)cc4)cc([N+](=O)[O-])c3)on2)c1	hi
O=[N+]([O-])c1cccc(S(=O)(=O)N2CCN(CC(O)COc3ccc(-c4ccccc4)cc3)CC2)c1 (centres undefined)	hi
CCCC[C@H](NC(=O)OC(C)(C)C)C(=O)Nc1ccc(Cc2ccc(NC(=O)[C@H](CCCC)NC(=O)OC(C)(C)C)cc2)cc1	mid
Cc1c(CCNC(=O)CCCN2CC(C)CC(C)C2)c2ccccc2n1C (centres undefined)	hi
COC(=O)c1cccc(CNCc2ccc(-c3ccc(-c4nc5cc(C(F)(F)F)ccc5[nH]4)cc3)cc2)c1	lo
Cn1c(/C=C/C(=O)NC2CCC(CCN3CCc4ccc(C#N)cc4CC3)CC2)cc2ccccc21 (centres undefined)	mid
CC1(C)CCC(=Cc2ccc(Cl)cc2)CC1(O)Cn1ccnc1 (centres undefined)	mid
CC(C)CNCc1cccc(-c2cccc(CN(CCCN3CCN(C)CC3)C(=O)Nc3ccccc3)c2)c1	hi
O=C(NCC1CCCCC1)c1cc(=O)c2ccccc2o1	lo
COc1cccc(CN2CCCC(COC(c3ccc(F)cc3)c3ccc(F)cc3)C2)c1O (centres undefined)	lo
COc1cc(SC)c(Br)cc1-c1nc2ccncc2[nH]1	hi
Cc1cnc(NCCc2ccc(F)cc2)nc1NCCC(=O)Nc1ccccc1	mid
